SYSTEM_UNDER_TEST: Fes (UniProt P07332)
Sequence (P07332 whole entry, looked up): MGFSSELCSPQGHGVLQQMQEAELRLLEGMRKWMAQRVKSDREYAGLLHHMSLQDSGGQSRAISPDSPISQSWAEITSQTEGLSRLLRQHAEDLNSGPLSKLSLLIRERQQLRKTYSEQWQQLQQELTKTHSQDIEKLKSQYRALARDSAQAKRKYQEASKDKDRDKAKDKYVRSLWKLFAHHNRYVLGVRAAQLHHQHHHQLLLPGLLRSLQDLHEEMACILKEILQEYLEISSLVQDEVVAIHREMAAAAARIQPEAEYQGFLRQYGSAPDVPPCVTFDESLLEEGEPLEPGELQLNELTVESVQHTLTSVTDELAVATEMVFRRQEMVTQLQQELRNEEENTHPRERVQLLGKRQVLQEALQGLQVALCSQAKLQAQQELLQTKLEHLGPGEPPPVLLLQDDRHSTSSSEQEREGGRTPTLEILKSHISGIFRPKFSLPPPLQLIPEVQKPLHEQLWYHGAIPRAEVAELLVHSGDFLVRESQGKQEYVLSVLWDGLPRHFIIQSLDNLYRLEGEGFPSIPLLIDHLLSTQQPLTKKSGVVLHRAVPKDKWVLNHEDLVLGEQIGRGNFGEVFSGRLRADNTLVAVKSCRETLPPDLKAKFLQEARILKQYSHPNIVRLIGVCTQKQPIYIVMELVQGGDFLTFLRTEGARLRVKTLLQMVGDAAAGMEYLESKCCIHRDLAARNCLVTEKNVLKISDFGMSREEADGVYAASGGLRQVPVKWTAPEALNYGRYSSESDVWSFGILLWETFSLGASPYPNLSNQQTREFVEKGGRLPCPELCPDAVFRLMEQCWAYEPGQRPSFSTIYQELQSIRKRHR
PROTOCOL_SUMMARY: phosphorylation enrichment, bacterial display (enrichment ratio); higher = better substrate or ligand; peptides without Tyr show the background;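 further: 11-residue human phosphosite peptides and single-mutation variants displayed on the E. coli surface, counted by deep sequencing, each peptide's frequency after selection divided by its frequency in the unselected input library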;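 further: frequency after pTyr selection over input frequency; kinase dosed for 20-30% of maximal phosphorylation in three min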
Class Y: phosphorylation enrichment at least 1. Class N: phosphorylation enrichment below 1.

RESIDUE_CODES: SGEKPYKCSVC [ZNF543_Y283_E287V]
GROUP: N
//
RESIDUE_CODES: LWKWRYEELKE [CCDC102B_Y299_K298R]
GROUP: Y
//
RESIDUE_CODES: VRFMAYTDETC [F8_Y450_F455C]
GROUP: Y
//
RESIDUE_CODES: CPFNLYAEQFS [HGD_Y40_L44F_YF]
GROUP: Y

With those in mind, consider the next sequence.
Exam item: Quick check, phosphorylation enrichment >= 1? KAALSYVSEIG [BPIFB2_Y36]
Marked response: N
